Assay: A CellTox Green Cytotoxicity Assay to monitor cytotoxicity in HEK293 cells - 40 hour (AID 1224871); also: nearly all actives have a fitted effect of over 45% in size
Conditions: CellTox Green fluorescence; series mostly up to 76.8 µM
Results filed as inconclusive are left out. Calls of active or inactive are those of the source. Calls follow the shape of the dose curve; as a rule, active = well fitted activation curve with a large enough effect in the repeat runs; inconclusive = weak or mixed curves; inactive = flat fitted curve, though single readings scatter.
reportedMetric: cytotoxicity increase

For orientation, consider the following solved cases.
COc1cccc([C@@]2(O)CCCC[C@@H]2CN(C)C)c1 :: inactive
CCC1(c2cccc(O)c2)CCCCN(C)C1 (stereo not drawn) :: inactive
COc1ccc(C=O)cc1O :: inactive
COc1ccc2c(C(=O)c3ccc(Cl)cc3)c(C)n(CC(=O)O)c2c1 :: inactive
CCOC1Oc2ccc(OS(C)(=O)=O)cc2C1(C)C (stereo not drawn) :: inactive
CCN[C@@H](C)Cc1cccc(C(F)(F)F)c1 :: inactive
Cc1cccc2sc3nncn3c12 :: inactive
BrCc1ccc(Br)cc1 :: inactive
N[C@@H]1C[C@H]1c1ccccc1 :: inactive
C#CCOC(=O)/C=C(C)/C=C/CC(C)CCCC(C)C (stereo not drawn) :: inactive

Report cytotoxicity increase for COC(=O)[C@@H](N)CCCN/C(N)=N/[N+](=O)[O-] please.
inactive

Similarly, Cc1ccc2cc(C)ccc2c1 ?
inactive

Similarly, CCOC(=O)CCl ?
inactive

Similarly, CN(C)C(=O)Oc1cc(OC(=O)N(C)C)cc(C(O)CNC(C)(C)C)c1 (stereo not drawn) ?
inactive

The origin of these recorded values is PubChem BioAssay (Tox21).
